Items are presented alongside their recorded %Inh.
Tested on: PRKCE
Protocol Conditions: concentration: 1 μM,replicates: in singlicate; n = 1;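 further: KINOMEscan kinase panel screen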

Chem Smiles: Cl.Cl.NC[C@H](CC1CCCCC1)NC(=O)c1ccc(-c2ccnc3[nH]ccc23)s1
Test Target: PRKCE
Unit Abbreviation: %
%Inh: 98.5
--
Chem Smiles: CC(C)S(=O)(=O)N1CCN(Cc2ccc3c(c2)nc(NC(=O)c2ccsc2)n3C[C@H](O)c2ccccc2)CC1
Test Target: PRKCE
Unit Abbreviation: %
%Inh: 15
--
Chem Smiles: COc1cc2nccc(Nc3ccc(Oc4ccccc4)cc3)c2cc1OC.Cl
Test Target: PRKCE
Unit Abbreviation: %
%Inh: 0
--
Chem Smiles: Cc1cccc(-c2nc(Nc3ccncc3)c3sccc3n2)n1
Test Target: PRKCE
Unit Abbreviation: %
%Inh: 40

----------
System: YSK1
Construct: gene STK25
Protocol Conditions: concentration: 1 μM,replicates: in singlicate; n = 1

Molecule: Cc1ccn2nc(-c3ccc(F)cc3)c(-c3ccncc3)c2c1.Cl
%Inh, %: 15

Molecule: CS(=O)(=O)Nc1ccc(-c2ccnc3[nH]ccc23)cc1
%Inh, %: 51

Molecule: Cn1ccc2ncnc(Oc3ccc(NC(=O)Nc4cccc(C(F)(F)F)c4)c(F)c3)c21
%Inh, %: 0

Molecule: O=C1NCCc2[nH]c(-c3ccncc3)cc21
%Inh, %: 0

Molecule: Cl.Nc1n[nH]c2cc(-c3ccccn3)ccc12
%Inh, %: 8

Molecule: C[C@@H](Oc1cc(-n2cnc3ccc(-c4ccncc4)cc32)sc1C(N)=O)c1ccccc1Cl
%Inh, %: 2

Molecule: CN(c1cccc(CNc2nc(Nc3ccc4c(c3)CC(=O)N4)ncc2C(F)(F)F)c1)S(C)(=O)=O
%Inh, %: 0

Molecule: O=C(NOCC1CC1)c1cc(Br)c(F)c(F)c1Nc1ccc(I)cc1Cl
%Inh, %: 0

Molecule: Cl.Cl.NC[C@H](CC1CCCCC1)NC(=O)c1ccc(-c2ccnc3[nH]ccc23)s1
%Inh, %: 0

Molecule: CN(c1ccccc1CNc1nc(Nc2ccc3c(c2)CC(=O)N3)ncc1C(F)(F)F)S(C)(=O)=O
%Inh, %: 11

Molecule: O=C(Nc1n[nH]c2cc(-c3ccco3)ccc12)C1CC1
%Inh, %: 0

Molecule: CC(=O)Nc1ccc(-c2cc3ncnc(SCC(=O)O)c3s2)cc1
%Inh, %: 11

Molecule: Nc1nccc(-c2ccc3c(N)n[nH]c3c2)n1
%Inh, %: 17

Molecule: COc1cccc(CNC(=O)NC2CCN(c3ccnc(Nc4cc(OC)c(OC)c(OC)c4)n3)C2)c1 (stereo not shown)
%Inh, %: 0

Molecule: C[C@@H](Oc1cc(-n2cnc3cc(-c4ccncc4)ccc32)sc1C(N)=O)c1ccccc1Cl
%Inh, %: 0

Molecule: O=c1[nH]cc(-c2ccc(O)cc2)c2sc(-c3ccncc3)cc12
%Inh, %: 0

Molecule: Cc1ccc2c(-c3ccnc(Nc4ccc(C(F)(F)F)cc4)n3)cnn2n1
%Inh, %: 0

Molecule: NC(=O)c1ccc(-c2cc3ncnc(SCC(=O)O)c3s2)cc1
%Inh, %: 0

Molecule: N#Cc1cccc(C(=O)NC2CCN(c3ccnc(Nc4ccc(F)cc4)n3)C2)c1 (stereo not shown)
%Inh, %: 0

----------
Tested on: HCK
Protocol Conditions: concentration: 1 μM,replicates: in singlicate; n = 1
# %Inh per record follows

Molecule: O=C(Nc1ccccc1)c1cccc(Oc2ccc3nccn3n2)c1
Unit Abbreviation: %
%Inh: 15
--
Molecule: Cc1ccc2c(-c3ccnc(Nc4ccc(C(F)(F)F)cc4)n3)cnn2n1
Unit Abbreviation: %
%Inh: 30
--
Molecule: Cc1cccc(-c2nc(Nc3ccncc3)c3sccc3n2)n1
Unit Abbreviation: %
%Inh: 25
--
Molecule: COC(=O)c1cccc(NC(=O)NC2CCN(c3ccnc(Nc4cc(OC)c(OC)c(OC)c4)n3)C2)c1 (stereo not drawn)
Unit Abbreviation: %
%Inh: 5
--
Molecule: Cl.Nc1n[nH]c2cc(-c3ccccn3)ccc12
Unit Abbreviation: %
%Inh: 0
--
Molecule: CCOC(=O)N1CCC(n2cnc(-c3ccc(F)cc3)c2-c2ccnc(N)n2)CC1
Unit Abbreviation: %
%Inh: 0
--
Molecule: O=C(Nc1n[nH]c2cc(-c3ccco3)ccc12)C1CC1
Unit Abbreviation: %
%Inh: 5
--
Molecule: Cn1cc(-c2cccc3c(N)c(C(N)=O)nnc23)cn1
Unit Abbreviation: %
%Inh: 13
--
Molecule: C[C@@H](Oc1cc(-n2cnc3cc(-c4cnn(C)c4)ccc32)sc1C(N)=O)c1ccccc1Cl
Unit Abbreviation: %
%Inh: 64

----------
Test system: IRAK1
Protocol Conditions: concentration: 1 μM,replicates: in singlicate; n = 1

Molecule: COc1cc2nccc(Nc3ccc(Oc4ccccc4)cc3)c2cc1OC.Cl
Unit Abbreviation: %
%Inh: 0
--
Molecule: CNC(=O)c1ccccc1Nc1nc(Nc2cccc(CS(C)(=O)=O)c2)ncc1C.O=CO
Unit Abbreviation: %
%Inh: 99.7
--
Molecule: COC(=O)Nc1nc2cc(Oc3ccc(NC(=O)Nc4cc(C(F)(F)F)ccc4Cl)cc3)ccc2[nH]1.Cl
Unit Abbreviation: %
%Inh: 23
--
Molecule: CS(=O)c1ccc(-c2coc3ccc(-c4n[nH]c(=O)o4)cc23)cc1 (stereo not drawn)
Unit Abbreviation: %
%Inh: 55
--
Molecule: CN1CCN(CCNc2nc3cc(Oc4ccc(NC(=O)Nc5cc(C(F)(F)F)ccc5F)cc4)ccc3[nH]2)CC1.Cl.Cl
Unit Abbreviation: %
%Inh: 0
--
Molecule: CC(=O)Nc1nc2cnc(Nc3cc(NC(=O)c4cccc(CC(C)(C)C#N)c4)ccc3C)nc2s1
Unit Abbreviation: %
%Inh: 9
--
Molecule: CSc1nccc(-c2c(-c3ccc(F)cc3)ncn2CCCN2CCOCC2)n1.Cl
Unit Abbreviation: %
%Inh: 25
--
Molecule: C[C@@H]1CNc2c(sc3ccc4nc(-c5ccncc5)ccc4c23)C(=O)N1
Unit Abbreviation: %
%Inh: 78
--
Molecule: CC(=O)Nc1ccc(-c2cc3ncnc(SCC(=O)O)c3s2)cc1
Unit Abbreviation: %
%Inh: 78
--
Molecule: COc1ccc(Nc2nccc(N3CCC(NC(=O)c4cccc(C#N)c4)C3)n2)cc1 (stereo not drawn)
Unit Abbreviation: %
%Inh: 10
--
Molecule: CS(=O)(=O)c1cccc(CNc2nc(Nc3ccc4c(c3)[C@@H]3C[C@@H]4CNC3=O)ncc2C(F)(F)F)c1
Unit Abbreviation: %
%Inh: 39
--
Molecule: Cc1nnc(-c2ccc3occ(-c4ccc(S(C)=O)cc4)c3n2)o1 (stereo not drawn)
Unit Abbreviation: %
%Inh: 0
--
Molecule: Cc1ccc(CC(=O)N2CCc3cc(-c4cn(C)c5ncnc(N)c45)ccc32)cc1
Unit Abbreviation: %
%Inh: 13
--
Molecule: NC(=O)Nc1sc(-c2ccc(F)cc2)cc1C(N)=O
Unit Abbreviation: %
%Inh: 41
--
Molecule: FC(F)(F)c1cc(Br)cc(Nc2nccc(-c3cnn4ncccc34)n2)c1
Unit Abbreviation: %
%Inh: 92
--
Molecule: NC(=O)c1ccc(-c2cc3ncnc(SCC(=O)O)c3s2)cc1
Unit Abbreviation: %
%Inh: 70
--
Molecule: COc1cccc(C2=C(Nc3cccc(Cl)c3)C(=O)NC2=O)c1
Unit Abbreviation: %
%Inh: 46
--
Molecule: CC(=O)c1c(-c2ccncc2)[nH]c(-c2ccncc2)c1C
Unit Abbreviation: %
%Inh: 85

----------
Listing: %Inh of selected molecules
System: SBK1
Protocol Conditions: concentration: 1 μM,replicates: in singlicate; n = 1

Molecule: COc1cc2nccc(Nc3ccc(Oc4ccccc4)cc3)c2cc1OC.Cl
Test Target: SBK1
Unit Abbreviation: %
%Inh: 0

Molecule: C[C@@H](Oc1cc(-n2cnc3ccc(-c4ccncc4)cc32)sc1C(N)=O)c1ccccc1Cl
Test Target: SBK1
Unit Abbreviation: %
%Inh: 6

Molecule: CS(=O)(=O)Nc1ccc(-c2ccnc3[nH]ccc23)cc1
Test Target: SBK1
Unit Abbreviation: %
%Inh: 55

Molecule: CS(=O)c1ccc(-c2coc3ccc(-c4n[nH]c(=O)o4)cc23)cc1 (stereo not drawn)
Test Target: SBK1
Unit Abbreviation: %
%Inh: 85

Molecule: CCn1c(-c2nonc2N)nc2cncc(CNC3CCNCC3)c21.Cl
Test Target: SBK1
Unit Abbreviation: %
%Inh: 25

Molecule: Cc1cccc(-c2nc(Nc3ccncc3)c3sccc3n2)n1
Test Target: SBK1
Unit Abbreviation: %
%Inh: 58

Molecule: Cc1n[nH]c2cc(Nc3ccnc(Nc4cccc(CN5CCOCC5)c4)n3)ccc12
Test Target: SBK1
Unit Abbreviation: %
%Inh: 0

Molecule: Cn1ccc2ncnc(Oc3ccc(NC(=O)Nc4cccc(C(F)(F)F)c4)c(F)c3)c21
Test Target: SBK1
Unit Abbreviation: %
%Inh: 0

Molecule: COc1cccc(C2=C(Nc3cccc(Cl)c3)C(=O)NC2=O)c1
Test Target: SBK1
Unit Abbreviation: %
%Inh: 19

Molecule: COc1cc(Nc2nccc(N3CCC(NC(=O)c4cccc(C#N)c4)C3)n2)cc(OC)c1OC (stereo not drawn)
Test Target: SBK1
Unit Abbreviation: %
%Inh: 22

Molecule: CC(C)S(=O)(=O)N1CCN(Cc2ccc3c(c2)nc(NC(=O)c2ccsc2)n3C[C@H](O)c2ccccc2)CC1
Test Target: SBK1
Unit Abbreviation: %
%Inh: 59

Molecule: Cc1ccc(CC(=O)N2CCc3cc(-c4cn(C)c5ncnc(N)c45)ccc32)cc1
Test Target: SBK1
Unit Abbreviation: %
%Inh: 7

Molecule: CN(c1ccc2c(c1)nc(NCc1ccc(F)cc1)n2C)c1ccnc(Nc2ccc(CS(C)(=O)=O)cc2)n1.Cl
Test Target: SBK1
Unit Abbreviation: %
%Inh: 10

Molecule: C[C@@H]1CNc2c(sc3ccc4nc(-c5ccc(O)cc5)ccc4c23)C(=O)N1
Test Target: SBK1
Unit Abbreviation: %
%Inh: 32

Molecule: COC(=O)c1cccc(NC(=O)NC2CCN(c3ccnc(NCc4ccc(F)cc4)n3)CC2)c1
Test Target: SBK1
Unit Abbreviation: %
%Inh: 32

Molecule: N#Cc1cccc(C(=O)NC2CCN(c3ccnc(Nc4ccc(F)cc4)n3)C2)c1 (stereo not drawn)
Test Target: SBK1
Unit Abbreviation: %
%Inh: 2

Molecule: CC(C(=O)NC1CCN(c2ccnc(Nc3ccc(F)cc3)n2)C1)c1ccc(Cl)cc1 (stereo not drawn)
Test Target: SBK1
Unit Abbreviation: %
%Inh: 7

Molecule: FC(F)(F)c1cc(Br)cc(Nc2nccc(-c3cnn4ncccc34)n2)c1
Test Target: SBK1
Unit Abbreviation: %
%Inh: 0
